Value source: paper PMC10597491

# test-description: Plasma stability in vitro, human plasma
# Assay type: in vitro ADME
# Set-up: dose or concentration left out as unconfirmed
# condition: 37°C, incubated in duplicate, intact peptide by LC/MS/MS, read-out: t1/2 in human plasma (converted)
Bridge positions count the residues as written; N and C are the ends. Ends that are not written are not given here.
value-type: half-life (h)
The answer is to be given in h; state only the numeric part.

Could you share which half-life value was measured for Ac-GWGIPWCTLDPGSLQCAWLGKHGGGGSGGVVCQDWEGVELCWQGG (disulfide 7-16, 32-41) [MDK1472] ?
60

* * *

# target-entity: cynomolgus IL-7Rα (Macaca fascicularis, UniProt Q38IC7)
# Construct: cynomolgus IL-7Rα(aa 21–235)-His6, Sino Biological Cat# 90332-C08H; His6 (C); purchased Sino Biological 90332-C08H
# Sequence (Q38IC7 21-235): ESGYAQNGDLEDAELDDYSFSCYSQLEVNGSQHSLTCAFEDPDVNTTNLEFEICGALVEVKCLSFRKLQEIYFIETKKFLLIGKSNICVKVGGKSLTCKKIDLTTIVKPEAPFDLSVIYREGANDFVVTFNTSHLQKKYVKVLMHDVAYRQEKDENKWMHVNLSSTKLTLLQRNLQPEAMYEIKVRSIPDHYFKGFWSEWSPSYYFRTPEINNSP
# test-description: Competition binding ELISA, cynomolgus IL-7Rα ECD
# condition: immobilized cynomolgus IL-7Rα-His6 ECD; biotinylated peptide/NA-HRP tracer; read-out: Competition ELISA IC50, IL-7Rα Cyno
Bridge positions count the residues as written; N and C are the ends. Ends that are not written are not given here.
value-type: IC50 (nM)
Please give a number only; it is taken to be in nM.

Which value of IC50 has been reported for Ac-GWGIPWCTLDPGSLQCAWLGKHGGGGSGGVVCQDWEGVELCWQGG (disulfide 7-16, 32-41) [MDK1472] in the records?
190
